Here, each record is paired with measured pest or weed control at 500 g/ha data.
# System: Nezara viridula
# Protocol Text: Nezara viridula spray test
# Type: in vivo
# Condition Context: Nezara viridula, 96 h, application rate 500 g/ha, after 4 days

- Compound: "CCS(=O)(=O)c1ccc(-n2ncn(-c3ccc(Cl)cc3)c2=O)nc1-c1nc2cc(C(F)(F)C(F)(F)F)ccc2o1 [Example I-45]"
  Study System: "Nezara viridula"
  pest or weed control at 500 g/ha, %: 100
- Compound: "CCS(=O)(=O)c1ccc(-n2ncn(-c3ccc(F)cc3)c2=O)nc1-c1nc2cc(C(F)(F)F)ncc2o1 [Example I-35]"
  Study System: "Nezara viridula"
  pest or weed control at 500 g/ha, %: 100
- Compound: "CCS(=O)(=O)c1ccc(-n2ncn(-c3cccc(F)c3)c2=O)nc1-c1nc2cc(C(F)(F)C(F)(F)F)ccc2o1 [Example I-47]"
  Study System: "Nezara viridula"
  pest or weed control at 500 g/ha, %: 100
- Compound: "CCS(=O)(=O)c1ccc(-n2ncn(-c3cccc(Br)c3)c2=O)nc1-c1nc2cc(C(F)(F)C(F)(F)F)ccc2o1 [Example I-44]"
  Study System: "Nezara viridula"
  pest or weed control at 500 g/ha, %: 100
- Compound: "CCS(=O)(=O)c1ccc(-n2ncn(-c3cccc(Cl)c3)c2=O)nc1-c1nc2cc(C(F)(F)C(F)(F)F)ccc2o1 [Example I-46]"
  Study System: "Nezara viridula"
  pest or weed control at 500 g/ha, %: 90
- Compound: "CCS(=O)(=O)c1ccc(-n2ncn(-c3ccc(OC)nc3)c2=O)nc1-c1nc2cc(S(=O)(=O)C(F)(F)F)ccc2o1 [Example I-43]"
  Study System: "Nezara viridula"
  pest or weed control at 500 g/ha, %: 90
- Compound: "CCS(=O)(=O)c1ccc(-n2ncn(-c3ccc(F)cc3)c2=O)nc1-c1nc2cc(OC(F)(F)F)ccc2o1 [Example I-33]"
  Study System: "Nezara viridula"
  pest or weed control at 500 g/ha, %: 100
- Compound: "CCS(=O)(=O)c1ccc(-n2ncn(C3CC3C(F)(F)F)c2=O)nc1-c1nc2cc(S(=O)(=O)C(F)(F)F)ccc2o1 (stereo not drawn) [Example I-39]"
  Study System: "Nezara viridula"
  pest or weed control at 500 g/ha, %: 100
- Compound: "CCS(=O)(=O)c1ccc(-n2ncn(-c3ccc(F)cc3)c2=O)nc1-c1nc2cc(C(F)(F)F)ccc2o1 [Example I-36]"
  Study System: "Nezara viridula"
  pest or weed control at 500 g/ha, %: 100
